Biological target: T1, cynomolgus monkey TREM2 Fc fusion (entire TREM2 ECD; only one Fc arm fused to TREM2) (cynomolgus monkey, UniProt Q9NZC2 19-174 (human entry))
T1 construct: also called cyno TREM2-Fc
T1 chain: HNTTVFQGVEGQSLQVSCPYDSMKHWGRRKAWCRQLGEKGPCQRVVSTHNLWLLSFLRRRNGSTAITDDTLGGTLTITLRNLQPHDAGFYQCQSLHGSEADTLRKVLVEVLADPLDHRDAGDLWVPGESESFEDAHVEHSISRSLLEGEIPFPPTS
Assay: BLI, Fab, monovalent
Test readout: Kd (nM)
Express the result in nM but write the number alone.

Binder	Kd, nM
AL2p-11 (antibody, V domains shown, Fab and IgG formats under one id) VH: QVQLVQSGAEVKKPGSSVKVSCKASGYAFSSDWMNWVRQAPGQGLEWMGRIYPGDGDTNYARKFQGRVTITADESTSTAYMELSSLRSEDTAVYYCARLLRNQPGESYAMDYWGQGTLVTVSS VL: DVVMTQTPLSLSVTPGQPASISCRSSRSLVHSNGYTYLHWYLQKPGQSPQLLIYKVSNRVSGVPDRFSGSGSGTDFTLKISRVEAEDVGVYYCSQSTRVPYTFGQGTKLEIK	10.2

Now for a further binder.
Query: I am curious: what Kd value has been reported for AL2p-8 (antibody, V domains shown, Fab and IgG formats under one id) VH: QVQLVQSGAEVKKPGSSVKVSCKASGYAFSLSWMNWVRQAPGQGLEWMGRIYPGDGDTNYARKFQGRVTITADESTSTAYMELSSLRSEDTAVYYCARLLRNQPGSSYAMDYWGQGTLVTVSS VL: GVVMTQTPLSLSVTPGQPASISCRSSQSLIHSNGYTYLHWYLQKPGQSPQLLIYKVSNRRSGVPDRFSGSGSGTDFTLKISRVEAEDVGVYYCSQSTRVPYTFGQGTKLEIK ?
Reply: 3.1
